Items are presented alongside their recorded PBM binding z-score.
# Test system: RARb homodimer (NR concentration 270 nM)
# Procedure details: PBM binding z-score (relative to random genomic background probes); higher = stronger binding; sequences stand for … in GC…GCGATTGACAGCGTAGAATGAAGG
Give the figure by itself; no unit, no explanation.

> print(dat)
                             seq.text                               test.target  value.reported
1  ATCTCTAAGTAACAAGTTCAGTGAAAGAGAGGAC  RARb homodimer (NR concentration 270 nM)            1.84

input: Give the measured PBM binding z-score of GCGACTTGGGCATCAGCAGGTTACCATAACTTAA .
output: -0.0318

input: Give the measured PBM binding z-score of ATCTCTAGGTAAAGTACAGTGAAAGATCGATAGA .
output: 0.302

input: Give the measured PBM binding z-score of AGAACGATGGCACGCTGAGTTGATAGCAGAGTAG .
output: -0.907

input: Give the measured PBM binding z-score of CAAAGTAGGTCACAGAGGTCAAAGTCCGTGCGTA .
output: 5.68

input: Give the measured PBM binding z-score of CTACCAAGGTGAACAAGGGCGTTGATTACTATTC .
output: 1.26

input: Give the measured PBM binding z-score of CAGACTAGGTCAAGAGGTCAAAGTCCGCTTCCCG .
output: 5.34

input: Give the measured PBM binding z-score of GCTCCTAGGTCAACTGATGGTCAGCTAAAGCTCG .
output: 3.8

input: Give the measured PBM binding z-score of TCTTGTAGATCAACAGGAGATTAAGAAAGATCGA .
output: -1.12

input: Give the measured PBM binding z-score of GCTAGCACGCCATTTGGGTCACTCAATGACGGGC .
output: 1.32

input: Give the measured PBM binding z-score of TTACCAAGGTGTAGGTCGTTGATCCCTCTGTAGA .
output: 0.426

input: Give the measured PBM binding z-score of ATCGCTAGGTAACAAGTTCAGTGAAAGAGAGGAC .
output: 1.42

input: Give the measured PBM binding z-score of CAAACTAGGTCAAGGTCATAGTCGGTTTGTGCCA .
output: 4.91

input: Give the measured PBM binding z-score of TCTTGTAGATCAAAGGTAAAGAAAGCCGAAGCCT .
output: -0.121

---

# Test system: RARa:RXR (NR concentration 270 nM, RXRa partner concentration 90 nM)
# Procedure details: PBM binding z-score (relative to random genomic background probes); higher = stronger binding; sequences stand for … in GC…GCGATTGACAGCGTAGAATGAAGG
Decision: PBM binding z-score >= 1 yields TRUE, all other cases yield FALSE.

Some entries whose results are on file:
> print(dat)
                             seq.text  label
1  CCTATTAGTTGACCATAGGGGCAACCGAAGCTCG  FALSE
2  ATATGTTGGTTATCGGGTCATTCAGTTTGCGCAT   TRUE
3  CAAACTAGGTCACGAAAGGTCAAGGTCGAATGAC   TRUE

input: Please indicate if the recorded PBM binding z-score for AGAATGAGGTTATTAAGATCAGGGATTTGCGGTC meets or exceeds 1.
output: TRUE

input: Please indicate if the recorded PBM binding z-score for ATGTCTAGGTAAAGATAGTTCAGTGAATGCAAAT meets or exceeds 1.
output: FALSE

input: Please indicate if the recorded PBM binding z-score for CCTATTAGTTGACCATAAGGGCCACCGAAGCTCG meets or exceeds 1.
output: FALSE

input: Please indicate if the recorded PBM binding z-score for CGACCAAGGTCAAAGGTCAGTGAAGAGATGACGG meets or exceeds 1.
output: TRUE
